System: HCT-116
PROCEDURE_DETAILS: Compound is evaluated for an in vitro cytotoxicity assay against HCT116 tumor cell lines
Format: functional, cell-based
REPORTED_CONDITIONS: Homo sapiens
pIC50: −log10 of the molar value.
READOUT: pIC50

[[record]]
molecule = "CC(=O)O[C@H]1C(=O)[C@]2(C)[C@@H](O)CC3OC[C@@]3(OC(=O)N3CC3)[C@H]2[C@H](OC(=O)c2ccccc2)[C@]2(O)C[C@H](OC(=O)[C@H](O)[C@@H](NC(=O)OC(C)(C)C)c3ccco3)C(C)=C1C2(C)C (some centres not stated)"
readout = "pIC50"
assay_result = 8.70

[[record]]
molecule = "CC(=O)O[C@H]1C(=O)[C@]2(C)[C@@H](O)CC3OC[C@@]3(OC(=O)C3CC3)[C@H]2[C@H](OC(=O)c2ccccc2)[C@]2(O)C[C@H](OC(=O)[C@H](O)[C@@H](NC(=O)c3ccccc3)c3ccccc3)C(C)=C1C2(C)C (some centres not stated)"
readout = "pIC50"
assay_result = 9.00

